Reference for the values: paper PMC2756588

Each entry below carries its recorded SPOT intensity.
- assay system: T1, Bzz1-1, P38822
- T1 sequence (P38822 478-572, looked up): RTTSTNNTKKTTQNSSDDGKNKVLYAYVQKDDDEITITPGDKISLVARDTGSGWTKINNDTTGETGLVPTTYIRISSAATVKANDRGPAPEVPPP
- method description: SPOT array
- test parameters: median of control spots 4446
Respond using a number only.

Solved entries:
RPVPPPPPMRTTTEG 19
VGFRLALKFPSRITG 3
TIRRRAPLSLLESHT 3
NPLPKEPRLPKRKVA 6
ILARAILTIPRVLDK 0
NRARYLPQNPDIIAG 0
RMVRRRPLRVQFSAR 4
PAPPPPPRASRPTPN 7

For record SGVRLPAPPPPPRRG the listed SPOT intensity is 6

Measured SPOT intensity, VNFRRIPTGPDSPPT : 0

# SPOT intensity (binder: VYTRTAFQIPGDDKI ) is 0

What the record says about VPVAPPPPPASLGQS : SPOT intensity is 8

Briefly, SPOT intensity measured for NRPAIRIPSLKKPAL : 3

Looking up FVLRYYILIPHEQWD , I found its SPOT intensity recorded as 1

Entry KNPRRQLQIPRQQPS , SPOT intensity reported as 2

Consider PPLPRAPPVPPATFE . Its measured SPOT intensity is 2

Value of measured SPOT intensity for the entry RAPPPVPKKPSSRIA : 435

Per the record, SLSRRRFSLPSMPNV has SPOT intensity of 3
